test system: Plasmodium falciparum; assay: Antiplasmodial activity against CQ-resistant Plasmodium falciparum W2; format: functional, organism-based
Field 'label' (enum: MET / NOT MET). Set to MET when IC50 is strictly under 0.4 µM; else NOT MET.

Ask: Check if IC50 falls below 0.4 µM for `O=C(O)c1ccc2c(c1)C(=O)N(CCCCNc1ccnc3cc(Cl)ccc13)C2=O` .
Result: MET

Ask: Report whether reported IC50 is lower than 0.4 µM (strictly) for `O=C(NNC(=O)c1ccc(N2C(=O)c3ccccc3C2=O)cc1)c1ccncc1`
Result: NOT MET

Ask: Problem: For the molecule `O=C(NCCCNc1ccnc2cc(Cl)ccc12)c1ccc2c(c1)C(=O)N(NC(=O)c1ccncc1)C2=O` , is IC50 under 0.4 µM?
Result: NOT MET

Ask: # check: IC50 < 0.4 µM for `O=C(NCCCCCCNc1ccnc2cc(Cl)ccc12)c1ccc2c(c1)C(=O)N(NC(=O)c1ccncc1)C2=O`
Result: MET

Ask: Take the molecule `O=C(NCCNc1ccnc2cc(Cl)ccc12)c1ccc2c(c1)C(=O)N(NC(=O)c1ccncc1)C2=O` and say whether its IC50 is less than 0.4 µM.
Result: NOT MET

Ask: Say whether its IC50 is strictly beneath 0.4 µM. Entry: `O=C(NCCCCCCCCNc1ccnc2cc(Cl)ccc12)c1ccc2c(c1)C(=O)N(NC(=O)c1ccncc1)C2=O`
Result: MET

Ask: Threshold test, IC50 < 0.4 µM: `O=C(CN1C(=O)c2ccccc2C1=O)NNC(=O)c1ccncc1`
Result: NOT MET

Ask: Here's an entry: `O=C(O)c1ccc2c(c1)C(=O)N(CCCCCCNc1ccnc3cc(Cl)ccc13)C2=O` . Is its IC50 below 0.4 µM?
Result: MET

Ask: Determine if `O=C(NN1C(=O)c2ccc(C(=O)OCCCNc3ccnc4cc(Cl)ccc34)cc2C1=O)c1ccncc1` shows IC50 strictly lower than 0.4 µM.
Result: NOT MET

Ask: Quick check: IC50 of `O=C(NN1C(=O)c2ccc(C(=O)OCCNc3ccnc4cc(Cl)ccc34)cc2C1=O)c1ccncc1` under 0.4 µM?
Result: NOT MET

Ask: Does the reported IC50 of `O=C(NN1C(=O)c2ccc(N3CCN(c4ccnc5cc(Cl)ccc45)CC3)cc2C1=O)c1ccncc1` stay below 0.4 µM?
Result: NOT MET

Ask: Find out if reported IC50 for `O=C(NCCCCNc1ccnc2cc(Cl)ccc12)c1ccc2c(c1)C(=O)N(NC(=O)c1ccncc1)C2=O` is less than 0.4 µM
Result: MET

Ask: Given the entry `O=C(NNC(=O)c1ccc2c(c1)C(=O)N(CCNc1ccnc3cc(Cl)ccc13)C2=O)c1ccncc1` , would its reported IC50 be below 0.4 µM?
Result: NOT MET

Ask: In the record for `O=C(O)c1ccc2c(c1)C(=O)N(CCCCCCCCNc1ccnc3cc(Cl)ccc13)C2=O` , is IC50 less than 0.4 µM?
Result: MET

Ask: IC50 under 0.4 µM? Item: `O=C(NNC(=O)c1ccc2c(c1)C(=O)N(CCCCCCCCNc1ccnc3cc(Cl)ccc13)C2=O)c1ccncc1`
Result: MET

Ask: # strict comparison: is reported IC50 < 0.4 µM? input = `O=C(O)c1ccc2c(c1)C(=O)N(CCCNc1ccnc3cc(Cl)ccc13)C2=O`
Result: NOT MET

Ask: Report whether reported IC50 is lower than 0.4 µM (strictly) for `O=C(NNC(=O)c1ccc2c(c1)C(=O)N(CCCCNc1ccnc3cc(Cl)ccc13)C2=O)c1ccncc1`
Result: MET

Ask: Hi there! Is IC50 for `O=C(O)c1ccc2c(c1)C(=O)N(CCNc1ccnc3cc(Cl)ccc13)C2=O` below 0.4 µM, do you know?
Result: NOT MET

Ask: Problem: For the molecule `O=C(NNC(=O)c1ccc2c(c1)C(=O)N(CCCCCCNc1ccnc3cc(Cl)ccc13)C2=O)c1ccncc1` , is IC50 under 0.4 µM?
Result: NOT MET

----------
test: Selectivity index, ratio of IC50 for African green monkey Vero cells to IC50 for antiplasmodial activity against CQ-resistant Plasmodium falciparum W2; type: toxicity; settings: read-out: Ratio IC50
Heads up, the class ranges for selectivity ratio are range 1 = under 100, range 2 = from 100 up to 600, range 3 = 600 and over

Ask: Any idea which band `O=C(NCCCCCCNc1ccnc2cc(Cl)ccc12)c1ccc2c(c1)C(=O)N(NC(=O)c1ccncc1)C2=O` is in?
Result: range 3

Ask: Lab note: sort `O=C(NN1C(=O)c2ccc(N3CCN(c4ccnc5cc(Cl)ccc45)CC3)cc2C1=O)c1ccncc1` into the matching selectivity ratio band.
Result: range 2

Ask: Bin this entry: `O=C(O)c1ccc2c(c1)C(=O)N(CCCNc1ccnc3cc(Cl)ccc13)C2=O`
Result: range 2

Ask: Kindly identify the class of `O=C(NCCCCNc1ccnc2cc(Cl)ccc12)c1ccc2c(c1)C(=O)N(NC(=O)c1ccncc1)C2=O` .
Result: range 1

Ask: Consider `O=C(O)c1ccc2c(c1)C(=O)N(CCCCNc1ccnc3cc(Cl)ccc13)C2=O` . To which selectivity ratio class does it belong?
Result: range 3

Ask: Which selectivity ratio band matches `O=C(NNC(=O)c1ccc2c(c1)C(=O)N(CCCCNc1ccnc3cc(Cl)ccc13)C2=O)c1ccncc1` ?
Result: range 3

Ask: Categorize the following entry: `O=C(NNC(=O)c1ccc2c(c1)C(=O)N(CCCNc1ccnc3cc(Cl)ccc13)C2=O)c1ccncc1`
Result: range 2

Ask: Hey, which category is `O=C(NN1C(=O)c2ccc(C(=O)OCCCNc3ccnc4cc(Cl)ccc34)cc2C1=O)c1ccncc1` in, do you know?
Result: range 1

Ask: Given `O=C(NNC(=O)c1ccc2c(c1)C(=O)N(CCCCCCNc1ccnc3cc(Cl)ccc13)C2=O)c1ccncc1` , name the class its selectivity ratio places it in.
Result: range 1

Ask: Consider `O=C(NNC(=O)c1ccc2c(c1)C(=O)N(CCNc1ccnc3cc(Cl)ccc13)C2=O)c1ccncc1` . To which selectivity ratio class does it belong?
Result: range 2
